These entries and their values trace back to patent US20230150924A1.

System: KAI1 promoter
Assay: KAI1 promoter luciferase reporter assay in transfected Caco2 cells
Format: cell-based, human
Details: Homo sapiens, Caco-2, 16 h, 1 μM compound, 16 hours, transfected Caco2 cells, luciferase activity relative to DMSO control (=1); read-out: Relative KAI promoter activity
I'd appreciate it if you could supply fold induction at 1 µM values for the items below.
Give the figure only, with no unit attached.

For reference, reported fold induction at 1 µM for O=C(CNC(=O)c1ccccc1CN1CCN(c2ccccc2F)CC1)c1ccccc1 stands at 2.17

Just so you know, measured fold induction at 1 µM for C=CCNC(=O)COc1ccccc1C(=O)NCC(=O)c1ccccc1 came out at 1.05

Record O=C(CNC(=O)c1cccc(C(F)(F)F)c1)c1ccccc1 , field fold induction at 1 µM: 1.18

// recorded fold induction at 1 µM for COc1cccc(C(=O)CNC(=O)c2cccc(CN3CCC(N4CCCCC4)CC3)c2)c1 : 1.33

Record summary for O=C(CNC(=O)c1ccccc1F)c1ccc(N2CCOCC2)cc1 : reported fold induction at 1 µM = 1.19

The value of fold induction at 1 µM measured for the compound O=C(COc1ccccc1C(=O)NCC(=O)c1ccccc1)NC1CCCCC1 turned out to be 1.08

For record COc1cc(C)ccc1NC(=O)COc1ccccc1C(=O)NCC(=O)c1ccccc1 the listed fold induction at 1 µM is 1.05

Lab note: O=C(CNC(=O)c1ccccc1OC1CCN(C(=O)c2cccc([N+](=O)[O-])c2)CC1)c1ccccc1 gave fold induction at 1 µM of 1.08

Input C/C=C/C(=O)NCC(=O)c1cccnc1 . Output fold induction at 1 µM: 1.09
